Species on record: Homo sapiens
METHOD SUMMARY: Selectivity ratio of IC50 for ETB receptor (unknown origin) to IC50 for ETA receptor (unknown origin)
Ratio IC50 vs 20: less than gives Met; not less than gives Not met.

{"CHEMICAL STRING": "CCc1cc2c(cc1Cn1c(C(=O)O)c(Cc3cccc(C(=O)O)c3)c(=O)c3cc(OCCN)ccc31)OCO2", "ASSIGNED LABEL": "Met"}
{"CHEMICAL STRING": "CCc1cc2c(cc1Cn1c(C(=O)O)c(Cc3cccc(C(=O)O)c3)c(=O)c3cc(OCOC)ccc31)OCO2", "ASSIGNED LABEL": "Not met"}
{"CHEMICAL STRING": "CCCOc1ccc2c(c1)c(=O)c(Cc1cccc(-c3nnn[nH]3)c1)c(C(=O)O)n2Cc1cc2c(cc1CC)OCO2", "ASSIGNED LABEL": "Not met"}
{"CHEMICAL STRING": "C=CCOc1ccc2c(c1)c(=O)c(Cc1cccc(-c3nnn[nH]3)c1)c(C(=O)O)n2Cc1cc2c(cc1CC)OCO2", "ASSIGNED LABEL": "Not met"}
{"CHEMICAL STRING": "CCc1cc2c(cc1Cn1c(C(=O)O)c(Cc3cccc(-c4nnn[nH]4)c3)c(=O)c3cc(OCOC)ccc31)OCO2", "ASSIGNED LABEL": "Not met"}
